Test system: West Nile virus
Assay: Inhibition of West Nile virus NS2B-NS3 protease expressed in Escherichia coli BL 21 (DE3) using Abz-Gly-Leu-Lys-Arg-Gly-Gly-3-(NO2)Tyr as substrate at 50 uM after 15 mins
Square brackets hold non-standard residues; d marks the D form. Peptide text beside a SMILES is read from it. * marks the point of attachment. Nle = CCCC[C@H](N)C(=O)O; Bz = O=C(c1ccccc1)*
I'd be grateful if you could share measured inhibition for these entries.
Answers are plain numbers, in %.

CCCC[C@H](NC(=O)[C@H](CCCCN)NC(=O)[C@H](CCCNC(=N)N)NC(=O)c1ccc(/C=C2\SC(=S)N(c3ccc(OC)cc3)C2=O)cc1)C(N)=O    42.9
CCCC[C@H](NC(=O)[C@H](CCCCN)NC(=O)[C@H](CCCNC(=N)N)NC(=O)/C=C/c1ccccc1)C(N)=O    13.8
CCCC[C@H](NC(=O)[C@H](CCCCN)NC(=O)[C@H](CCCNC(=N)N)NC(=O)c1ccccc1)C(N)=O (Bz-Arg-Lys-[Nle]-NH2)    7.7
CCCC[C@H](NC(=O)[C@H](CCCCN)NC(=O)[C@H](CCCNC(=N)N)NC(=O)c1ccc(/C=C2\SC(=S)N(CC)C2=O)cc1)C(N)=O    45.4
CCCC[C@H](NC(=O)[C@H](CCCCN)NC(=O)[C@H](CCCNC(=N)N)NC(=O)c1ccc(/C=C2\SC(=S)N(C(C)C)C2=O)cc1)C(N)=O    63.7

Please turn your attention to the following entry.
[in] Could you share which inhibition value was measured for CCCC[C@H](NC(=O)[C@H](CCCCN)NC(=O)[C@H](CCCNC(=N)N)NC(=O)c1ccc(/C=C2\SC(=S)N(Cc3ccc(OC)cc3)C2=O)cc1)C(N)=O ?
[out] 99

---

System: Dengue virus
Assay: Inhibition of Dengue virus NS2B-NS3 protease expressed in Escherichia coli BL 21 (DE3) using Abz-Nle-Lys-Arg-Arg-Ser-3-(NO2)Tyr as substrate at 50 uM after 15 mins
assay endpoint: inhibition (%)
Numbers only, in %.

Some entries whose results are on file:
CCCC[C@H](NC(=O)[C@H](CCCCN)NC(=O)[C@H](CCCNC(=N)N)NC(=O)c1ccc(/C=C2\SC(=S)N(C3CCCC3)C2=O)cc1)C(N)=O    99.8
CCCC[C@H](NC(=O)[C@H](CCCCN)NC(=O)[C@H](CCCNC(=N)N)NC(=O)c1ccc(/C=C2\SC(=S)N(Cc3ccc(Cl)cc3)C2=O)cc1)C(N)=O    100
N=C(N)NCCC[C@H](NC(=O)c1ccc(/C=C2\SC(=O)N(Cc3ccccc3)C2=O)cc1)C(=O)N[C@@H](CCCCN)C(N)=O    83.1

// input: 3 compounds below; output: inhibition for each
1. CCCC[C@H](NC(=O)[C@H](CCCCN)NC(=O)[C@H](CCCNC(=N)N)NC(=O)c1ccc(/C=C2\SC(=S)NC2=O)cc1)C(N)=O
2. CCCC[C@H](NC(=O)[C@H](CCCCN)NC(=O)[C@H](CCCNC(=N)N)NC(=O)c1ccc(/C=C2\SC(=O)N(Cc3ccc(C)cc3)C2=O)cc1)C(N)=O
3. CCCC[C@H](NC(=O)[C@H](CCCCN)NC(=O)[C@H](CCCNC(=N)N)NC(=O)c1ccc(/C=C2\SC(=S)N(c3ccc(Cl)cc3)C2=O)cc1)C(N)=O

[out]
87.1
97.6
96.7

---

Test system: Dengue virus
Assay: Inhibition of Dengue virus NS2B-NS3 protease expressed in Escherichia coli BL 21 (DE3) using Abz-Nle-Lys-Arg-Arg-Ser-3-(NO2)Tyr as substrate at 50 uM after 15 mins
assay endpoint: inhibition (%)
Answers are plain numbers, in %.

Some entries whose results are on file:
CCCC[C@H](NC(=O)[C@H](CCCCN)NC(=O)[C@H](CCCNC(=N)N)NC(=O)c1ccc(/C=C2\SC(=S)N(c3ccc(F)cc3)C2=O)cc1)C(N)=O    89.7
CCCC[C@H](NC(=O)[C@H](CCCCN)NC(=O)[C@H](CCCNC(=N)N)NC(=O)c1ccc(/C=C2\SC(=S)N(CCO)C2=O)cc1)C(N)=O    90.3
CCCC[C@H](NC(=O)[C@H](CCCCN)NC(=O)[C@H](CCCNC(=N)N)NC(=O)c1ccc(/C=C2\SC(=S)N(c3ccc(C)cc3)C2=O)cc1)C(N)=O    95
CCCC[C@H](NC(=O)[C@H](CCCCN)NC(=O)[C@H](CCCNC(=N)N)NC(=O)c1ccc(/C=C2\SC(=O)N(C3CCCCC3)C2=O)cc1)C(N)=O    98.4
CCCC[C@H](NC(=O)[C@H](CCCCN)NC(=O)[C@H](CCCNC(=N)N)NC(=O)c1ccc(/C=C2\SC(=S)N(CCCC)C2=O)cc1)C(N)=O    97.3

Please turn your attention to the following entry.
[in] Could you share which inhibition value was measured for CCCC[C@H](NC(=O)[C@H](CCCCN)NC(=O)[C@H](CCCNC(=N)N)NC(=O)c1ccc(/C=C2\SC(=O)N(CCc3ccccc3)C2=O)cc1)C(N)=O ?
[out] 96.8

---

Assay: Permeability of the compound by PAMPA
Format: ADME
Conditions: read-out: permeability
assay endpoint: Papp (×10⁻⁶ cm/s)
Give bare numbers, in ×10⁻⁶ cm/s.

CCCC[C@H](NC(=O)[C@H](CCCCN)NC(=O)[C@H](CCCNC(=N)N)NC(=O)c1ccc(/C=C2\SC(=O)N(Cc3ccc(Cl)cc3)C2=O)cc1)C(N)=O    1.11
CCCC[C@H](NC(=O)[C@H](CCCCN)NC(=O)[C@H](CCCNC(=N)N)NC(=O)c1ccc(/C=C2\SC(=S)N(C3CCCCC3)C2=O)cc1)C(N)=O    1.82
CCCCC(C(=O)OC)N1C(=O)/C(=C/c2ccc(C(=O)N[C@@H](CCCNC(=N)N)C(=O)N[C@@H](CCCCN)C(=O)N[C@@H](CCCC)C(N)=O)cc2)SC1=S (some centres not stated)    0.87
C=CCN1C(=O)/C(=C/c2ccc(C(=O)N[C@@H](CCCNC(=N)N)C(=O)N[C@@H](CCCCN)C(=O)N[C@@H](CCCC)C(N)=O)cc2)SC1=S    0.42
CCCC[C@H](NC(=O)[C@H](CCCCN)NC(=O)[C@H](CCCNC(=N)N)NC(=O)c1ccc(/C=C2\SC(=O)N(C3CCCCC3)C2=O)cc1)C(N)=O    1.69

// input: 2 compounds below; output: Papp for each
1. CCCC[C@@H](NC(=O)[C@@H](CCCCN)NC(=O)[C@@H](CCCNC(=N)N)NC(=O)c1ccc(/C=C2\SC(=O)N(Cc3ccccc3)C2=O)cc1)C(N)=O
2. CCCC[C@H](NC(=O)[C@H](CCCCN)NC(=O)[C@H](CCCNC(=N)N)NC(=O)/C=C/c1ccccc1)C(N)=O

[out]
0.29
1.26

---

System: Dengue virus
Assay: Inhibition of Dengue virus NS2B-NS3 protease expressed in Escherichia coli BL 21 (DE3) using Abz-Nle-Lys-Arg-Arg-Ser-3-(NO2)Tyr as substrate at 50 uM after 15 mins
Square brackets hold non-standard residues; d marks the D form. Peptide text beside a SMILES is read from it. * marks the point of attachment. Nle = CCCC[C@H](N)C(=O)O; Bz = O=C(c1ccccc1)*
I'd be grateful if you could share measured inhibition for these entries.
One number for each entry, in %.

Some entries whose results are on file:
CCCC[C@H](NC(=O)[C@H](CCCCN)NC(=O)[C@H](CCCNC(=N)N)NC(=O)c1ccc(/C=C2\SC(=O)N(CCO)C2=O)cc1)C(N)=O    95.9
CCCC[C@H](NC(=O)[C@H](CCCCN)NC(=O)[C@H](CCCNC(=N)N)NC(=O)c1ccccc1)C(N)=O (Bz-Arg-Lys-[Nle]-NH2)    68.1
N=C(N)NCCC[C@H](NC(=O)c1ccc(/C=C2\SC(=O)N(Cc3ccccc3)C2=O)cc1)C(N)=O    32.4

Please turn your attention to the following entry.
[in] // fetch Dengue virus inhibition for CCCC[C@H](NC(=O)[C@H](CCCCN)NC(=O)[C@H](CCCNC(=N)N)NC(=O)c1ccc(/C=C2\SC(=S)N(C(C)C)C2=O)cc1)C(N)=O
[out] 94.4

---

Tested on: Dengue virus
Test: Competitive inhibition of Dengue virus NS2B-NS3 protease expressed in Escherichia coli BL 21 (DE3) using Abz-Nle-Lys-Arg-Arg-Ser-3-(NO2)Tyr as substrate by Cornish-Bowden plot analysis
Calls of active or inactive are those of the source. No cut-off for these calls is given here. Square brackets hold non-standard residues; d marks the D form. Peptide text beside a SMILES is read from it. * marks the point of attachment. Nle = CCCC[C@H](N)C(=O)O; Bz = O=C(c1ccccc1)*
assay endpoint: inhibition

CCCC[C@H](NC(=O)[C@H](CCCCN)NC(=O)[C@H](CCCNC(=N)N)NC(=O)/C=C/c1ccccc1)C(N)=O    Active
CCCC[C@H](NC(=O)[C@H](CCCCN)NC(=O)[C@H](CCCNC(=N)N)NC(=O)c1ccc(/C=C2\SC(=O)N(CCc3ccccc3)C2=O)cc1)C(N)=O    Active
CCCC[C@H](NC(=O)[C@H](CCCCN)NC(=O)[C@H](CCCNC(=N)N)NC(=O)c1cccs1)C(N)=O    Active
CCCC[C@H](NC(=O)[C@H](CCCCN)NC(=O)[C@H](CCCNC(=N)N)NC(=O)c1ccc(/C=C2\SC(=O)N(Cc3ccccc3)C2=O)cc1)C(N)=O    Active
CCCC[C@H](NC(=O)[C@H](CCCCN)NC(=O)[C@H](CCCNC(=N)N)NC(=O)c1ccc(/C=C2\SC(=O)N(CCCC)C2=O)cc1)C(N)=O    Active
CCCC[C@H](NC(=O)[C@H](CCCCN)NC(=O)[C@H](CCCNC(=N)N)NC(=O)c1ccc(/C=C2\SC(=S)N(C3CCCC3)C2=O)cc1)C(N)=O    Active

// input: 4 compounds below; output: inhibition for each
1. CCCC[C@H](NC(=O)[C@H](CCCCN)NC(=O)[C@H](CCCNC(=N)N)NC(=O)c1ccc(/C=C/C(N)=O)cc1)C(N)=O
2. CCCC[C@H](NC(=O)[C@H](CCCCN)NC(=O)[C@H](CCCNC(=N)N)NC(=O)c1ccc(/C=C2\SC(=S)N(CCCC)C2=O)cc1)C(N)=O
3. CCCC[C@H](NC(=O)[C@H](CCCCN)NC(=O)[C@H](CCCNC(=N)N)NC(=O)c1ccc(/C=C2\SC(=O)N(CCOC(C)=O)C2=O)cc1)C(N)=O
4. CCCC[C@H](NC(=O)[C@H](CCCCN)NC(=O)[C@H](CCCNC(=N)N)NC(=O)c1ccc(/C=C2\SC(=O)N(Cc3ccc(C)cc3)C2=O)cc1)C(N)=O

[out]
Active
Active
Active
Active

// input: 4 compounds below; output: inhibition for each
1. CCCC[C@H](NC(=O)[C@H](CCCCN)NC(=O)[C@H](CCCNC(=N)N)NC(=O)c1ccc(/C=C(\C#N)C(=O)NC2CC2)cc1)C(N)=O
2. CCCC[C@H](NC(=O)[C@H](CCCCN)NC(=O)[C@H](CCCNC(=N)N)NC(=O)c1ccc(/C=C2\SC(=O)N(C3CCCCC3)C2=O)cc1)C(N)=O
3. CCCC[C@H](NC(=O)[C@H](CCCCN)NC(=O)[C@H](CCCNC(=N)N)NC(=O)c1ccc(/C=C2\SC(=O)N(Cc3ccc(OC)cc3)C2=O)cc1)C(N)=O
4. CCCC[C@H](NC(=O)[C@H](CCCCN)NC(=O)[C@H](CCCNC(=N)N)NC(=O)c1ccccc1)C(N)=O (Bz-Arg-Lys-[Nle]-NH2)

[out]
1: Active; 2: Active; 3: Active; 4: Active
